Source listed as patent US9199947B2.

# measurementTarget: Recombinant human cathepsin A (Homo sapiens (Human), UniProt P10619)
# Sequence (P10619 29-326): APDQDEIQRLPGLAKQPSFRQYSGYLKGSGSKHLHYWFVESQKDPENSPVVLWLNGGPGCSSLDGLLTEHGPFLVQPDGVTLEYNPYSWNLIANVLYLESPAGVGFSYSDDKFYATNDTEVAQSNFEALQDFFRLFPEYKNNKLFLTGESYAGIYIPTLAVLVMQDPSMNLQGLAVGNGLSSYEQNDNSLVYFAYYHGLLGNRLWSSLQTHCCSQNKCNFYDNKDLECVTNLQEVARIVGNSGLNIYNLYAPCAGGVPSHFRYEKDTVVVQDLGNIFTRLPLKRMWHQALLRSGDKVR
# Sequence (P10619 327-480): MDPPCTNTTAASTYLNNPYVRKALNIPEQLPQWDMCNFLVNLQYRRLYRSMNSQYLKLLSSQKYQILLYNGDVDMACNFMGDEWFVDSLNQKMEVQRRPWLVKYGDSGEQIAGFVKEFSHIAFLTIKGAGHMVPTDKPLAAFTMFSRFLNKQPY
# testName: Cathepsin A inhibitory activity (Bodipy FL-labeled bradykinin substrate, microfluidic capillary electrophoresis)
# Type: biochemical
# particulars: read-out: CATHA IC50
Criterion: IC50 strictly less than 2 µM. Met: Fulfilled. Not met: Not fulfilled.

Hi there! Is IC50 for Cc1cnc(C(CC(=O)O)c2cccc(-c3ccccc3C(N)=O)c2)s1 (stereo not shown) below 2 µM, do you know? Not fulfilled

Consider next the compound O=C(O)CC(c1cccc(-c2ccc(OCc3ccccc3)c(F)c2)c1)c1nccs1 (stereo not shown) in the same way. Not fulfilled

Consider next the compound COc1ccc(-c2cccc(C(CC(=O)O)c3nccs3)c2)cn1 (stereo not shown) in the same way. Not fulfilled

Consider next the compound Cc1cnc(C(CC(=O)O)c2cccc(-c3ccccc3F)c2)s1 (stereo not shown) in the same way. Fulfilled

Consider next the compound COc1ccc(-c2cc(Cl)cc(C(CC(=O)O)c3ncc(C)s3)c2)c(F)c1 (stereo not shown) in the same way. Fulfilled

Consider next the compound COc1cccc(-c2cccc(C(CC(=O)O)c3nccs3)c2)c1 (stereo not shown) in the same way. Fulfilled

Consider next the compound Cc1cnc(C(CC(=O)O)c2cccc(-c3cc(Cl)ccc3F)c2)s1 (stereo not shown) in the same way. Fulfilled

Consider next the compound Cc1cnc(C(CC(=O)O)c2cccc(-c3ccncc3F)c2)s1 (stereo not shown) in the same way. Not fulfilled

Consider next the compound O=C(O)CC(c1cccc(-c2ccc(Cl)c(OCc3ccccc3)c2)c1)c1nccs1 (stereo not shown) in the same way. Not fulfilled

Consider next the compound COc1ccc(-c2ccccc2C(F)(F)F)cc1C(CC(=O)O)c1ncc(C)s1 (stereo not shown) in the same way. Not fulfilled
